# System: NCI/ADR-RES ovarian
# assay remarks: NCI-60 one-dose screen, 48 h (100 = growth as untreated, 0 = no growth, -100 = all killed)
# test parameters: 10 µM unless noted
About 83,000 compounds went through this panel and 20% of them were active in at least one assay; those are over-represented in the sample as a whole.

- compound: "Cc1ccc2nc3c(nc2c1)-c1cccc2cccc-3c12"
  growth / %: 86.1
- compound: "CCOC(=O)c1c(C)oc(C)c(C(=O)OCC)c1=O"
  growth / %: 108
- compound: "Cc1ccc(-c2noc(CC(=O)c3ccc([N+](=O)[O-])cc3)n2)cc1"
  growth / %: 104
- compound: "Fc1ccccc1Nc1n[nH]c(=S)s1"
  growth / %: 115
- compound: "Cc1n[nH]c(=O)n(/N=C\\c2c[nH]c3ccccc23)c1=O"
  growth / %: 106
- compound: "S=C1SCN(Cc2ccccc2)CN1Cc1ccccc1"
  growth / %: 73.6
- compound: "CC(O)Cn1cnc2c1c(=O)n(C)c(=O)n2C (configuration not stated)"
  growth / %: 112
- compound: "COc1ccc(NC(=S)Nc2ccccn2)cc1"
  growth / %: 99.8
- compound: "NCCSC(C[N+](=O)[O-])c1ccccc1Cl (configuration not stated)"
  growth / %: 106
- compound: "CN(Cc1ccccc1)Cc1ccccc1"
  growth / %: 102
- compound: "Nc1ccc2[nH]c(-c3ccccc3)cc(=O)c2c1"
  growth / %: 70.5
- compound: "c1ccc(N(c2ccccc2)c2ccccc2)cc1"
  growth / %: 105
- compound: "N#CCCOc1ccccc1"
  growth / %: 112
- compound: "O=C(O)c1cc(C(=O)O)cc([N+](=O)[O-])c1"
  growth / %: 106
- compound: "CCOC(=O)c1sc(N)nc1-c1ccccc1"
  growth / %: 104
- compound: "Nc1n[nH]c(=S)n1-c1ccc(Cl)cc1"
  growth / %: 100
- compound: "O=C1c2ccccc2C(=O)N1/N=C/c1ccc2c(c1)OCO2"
  growth / %: 110
- compound: "CCOC(=O)C(C(=O)OCC)C(c1ccccc1)N1CCN(c2ccccc2)CC1 (configuration not stated)"
  growth / %: 107
- compound: "CC(C)(C)c1ccc(O)c(CNC2CCCCC2)c1"
  growth / %: 98.5
- compound: "CC1=C(/C=C/C(C)=C/C=C/C(C)=C/C(=O)Nc2ccc(O)cc2)C(C)(C)CCC1"
  growth / %: 39.1
- compound: "COc1cc(C(=O)N/N=C/c2ccc(N(C)C)cc2)cc(OC)c1OC"
  growth / %: -40.1
- compound: "CC(/C=N/N1C(=O)c2ccccc2C1=O)c1ccccc1 (configuration not stated)"
  growth / %: 113
- compound: "COc1ccc2ccccc2c1/C=N/N1CCCCC1"
  growth / %: 90.9
- compound: "O=C=NC(c1ccccc1)(c1ccccc1)c1ccccc1"
  growth / %: 109
- compound: "CNC(=O)c1cccnc1"
  growth / %: 97
- compound: "N#C/C(=C/c1c(O)ccc2ccccc12)C(N)=O"
  growth / %: 94.6
- compound: "CC1=NN(c2ccccc2)C(=O)C1C(=O)c1ccccc1 (configuration not stated)"
  growth / %: 101

----------
# Test system: UO-31 renal
# assay remarks: NCI-60 one-dose screen, 48 h
# test parameters: 10 µM unless noted
The panel holds about 83,000 compounds, 20% with a hit somewhere; the sample as a whole holds those more often. Activity calls are given as the source filed them. How the source made its calls: active means growth percent below 10; inactive means the rest.
Labels: True = active, False = inactive

- molecule: "N#CCCOc1ccccc1"
  class label: "False"
- molecule: "Cc1ccc(-c2noc(CC(=O)c3ccc([N+](=O)[O-])cc3)n2)cc1"
  class label: "False"
- molecule: "Nc1ccccc1SC1CC(=O)N(c2cccc3ccccc23)C1=O (stereo not drawn)"
  class label: "False"
- molecule: "N=C1N=C(N)CS1"
  class label: "False"
- molecule: "NC(=S)NS(=O)(=O)c1ccc(N)cc1"
  class label: "False"
- molecule: "CC(=O)C(/C=N/C(N)=O)=C(/C)O"
  class label: "False"
- molecule: "CCC(=O)C(CC)c1cccc(OC)c1 (stereo not drawn)"
  class label: "False"
- molecule: "O=[N+]([O-])c1ccc(-n2[nH]nnc2=S)cc1"
  class label: "False"
- molecule: "O=C=NC(c1ccccc1)(c1ccccc1)c1ccccc1"
  class label: "False"
- molecule: "C[N+](C)(C)CN1C(=O)c2ccccc2C1=O"
  class label: "False"
- molecule: "C1CCCCNCCC1"
  class label: "False"
- molecule: "Clc1nc(Oc2ccccc2)nc(-c2cn(-c3ccccc3)c3ccccc23)n1"
  class label: "False"
- molecule: "CC1=C(/C=C/C(C)=C/C=C/C(C)=C/C(=O)Nc2ccc(O)cc2)C(C)(C)CCC1"
  class label: "True"

----------
# Test system: OVCAR-8 ovarian
# assay remarks: NCI-60 one-dose screen, 48 h
# test parameters: 10 µM unless noted
This is part of a sample that, as a whole, favours compounds with a hit. Of some 83,000 tested, about 20% had one in any assay. Active and inactive are the calls of the source. The calls were made as follows: active = growth percent below 10; inactive = the rest.
Labels: true for active, false for inactive

- compound: "CN(Cc1ccccc1)Cc1ccccc1"
  class label: "false"
- compound: "N#C/C(=C/c1c(O)ccc2ccccc12)C(N)=O"
  class label: "false"
- compound: "CCOC(=O)C(CNc1ccccc1)C(=O)OCC"
  class label: "false"
- compound: "CNC(=O)c1cccnc1"
  class label: "false"
- compound: "N#CCCOc1ccccc1"
  class label: "false"
- compound: "CC1=NN(c2ccccc2)C(=O)C1C(=O)c1ccccc1 (centres undefined)"
  class label: "false"
- compound: "c1ccc(NCc2ccc3c(c2)OCO3)cc1"
  class label: "false"
- compound: "Cc1nnc(NC/C=C/c2ccccc2)s1"
  class label: "false"
- compound: "O=[N+]([O-])c1ccc2nc3c4ccccc4c4ccccc4c3nc2c1"
  class label: "false"
- compound: "ClC/C=C/CSc1ncnc2nc[nH]c12"
  class label: "false"
- compound: "CC12CCC(CC1)C(C)(C)O2"
  class label: "false"
- compound: "C[N+](C)(C)CN1C(=O)c2ccccc2C1=O"
  class label: "false"
- compound: "NC(=O)c1ccccc1OCC(O)CO (centres undefined)"
  class label: "false"
- compound: "O=C=NC(c1ccccc1)(c1ccccc1)c1ccccc1"
  class label: "false"
- compound: "NCCSC(C[N+](=O)[O-])c1ccccc1Cl (centres undefined)"
  class label: "false"
- compound: "OCc1ccccn1"
  class label: "false"
- compound: "Cc1ccc(-c2noc(C)n2)cc1"
  class label: "false"
- compound: "O=C1c2c(O)cc(O)cc2OC(c2ccc(O)c(O)c2)C1O (centres undefined)"
  class label: "false"
- compound: "Nc1ccc2[nH]c(-c3ccccc3)cc(=O)c2c1"
  class label: "false"
- compound: "N#C/C(=C1C=C/C(=N/O)C(Br)=C/1)c1ccccc1"
  class label: "true"
- compound: "NC(=O)NO"
  class label: "false"
- compound: "C1CCCCNCCC1"
  class label: "false"
- compound: "O=C1c2ccccc2C(=O)N1/N=C/c1ccc2c(c1)OCO2"
  class label: "false"
- compound: "Nc1n[nH]c(=S)n1-c1ccc(Cl)cc1"
  class label: "false"
- compound: "CCCCCCCCCCCCOc1ccccc1C=O"
  class label: "false"
- compound: "CC(O)Cn1cnc2c1c(=O)n(C)c(=O)n2C (centres undefined)"
  class label: "false"
- compound: "Nc1ccc2ccc(N)cc2c1"
  class label: "false"
- compound: "COc1ccc2cc3[n+](cc2c1OC)CCc1cc2c(cc1-3)OCO2"
  class label: "false"
- compound: "CCCCCCCCCCCCCCCCOc1ccc(C)cc1"
  class label: "false"

----------
# Test system: OVCAR-4 ovarian
# assay remarks: NCI-60 one-dose screen, 48 h (100 = growth as untreated, 0 = no growth, -100 = all killed)
# test parameters: 100 µM
# Experimental: Growth inhibition of the OVCAR-4 human tumor cell line is measured as a screen for anti-cancer activity. Cells are grown in 96 well plates and exposed to the test compound for 48 hours. Compounds are tested at a single concentration, which is 10^-5 M for most compounds. The reported endpoint is percent growth (GI% or GIPRCNT), where numbers from 0 - 100% represent growth inhibition, and numbers from -100% - 0 represent cell death. For example, a value of 40 represents 60% growth inhibition. […]
This is part of a sample that, as a whole, favours compounds with a hit. Of some 83,000 tested, about 20% had one in any assay.
Flag rule - growth less than 30% flags Yes; the remaining entries get No.

- compound: "Cc1[nH]c(-c2nc3ccccc3[nH]2)c(C)c1C(=O)NC(C)C1CCCCC1 (stereo not given)"
  class label: "Yes"
- compound: "CC#C[C@]1(O)CC[C@H]2[C@@H]3CCC4=CC(=O)CCC4=C3[C@@H](c3ccc4c(c3)OCO4)C[C@@]21C"
  class label: "Yes"
- compound: "COc1ccc(Cl)cc1C(=O)NCCc1ccc(S(=O)(=O)NC(=O)NC2CCCCC2)cc1"
  class label: "No"
- compound: "CCc1ccccc1-n1c(N)c(C#N)c(-c2ccc(OC)c(OC)c2)c(C#N)c1=O"
  class label: "Yes"

All values here come from PubChem BioAssay (NCI).
